B1: GA-binding protein alpha chain, residues 172 to 250; numbered along this chain, Q06546 (parent)
chain: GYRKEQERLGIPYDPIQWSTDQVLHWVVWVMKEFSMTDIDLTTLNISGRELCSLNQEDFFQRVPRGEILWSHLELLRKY

Variants of: B1
measurementDescription: abundance fitness (aPCA) (normalised: wild type 0, dead -1); higher = more abundant; growth selection in yeast, the domain comes from the species named
conditionDescription: Homo sapiens
quantity: abundance fitness
Lab note: record just the number, no unit beside it.

Here's what some known entries look like.
• GYRKEQERLGIPYDPIQWSTDQVLHWVVWVMKEFSMTDIWLTTLNISGRELCSLNQEDFFQRVPRGEILWSHLELLRKY = -0.989
• GYRKEQERLGIPYDPIQWSTDQVLHWVVWYMKEFSMTDIDLTTLNISGRELCSLNQEDFFQRVPRGEILWSHLELLRKY = -0.492
• GYRKEQERLGIPYDPIQWSTDQVLHWVVWVMKEFSMTDIDLTTLNISGRELCSLNQEYFFQRVPRGEILWSHLELLRKY = -0.165
• GYRKEQERLGIPYDPIQWSTDQVLHWVVWVMKEFSMTDIDLTTLNISGRELCSLNQEDFFQRVPRGVILWSHLELLRKY = -0.118
• GYRKEQERLGIPYDPIQWSTDQVLHWVVWVMKEFSMTDIDLTTLNISGRELCSLNQEDFQQRVPRGEILWSHLELLRKY = -0.053

IN: Any idea what its abundance fitness is? The variant is GYRKEQERLGIPYDPIQWSTDQVLHWVVWVMKEFSMTDIDLTTLNISGRELCSLNTEDFFQRVPRGEILWSHLELLRKY
OUT: -0.132

IN: Any idea what its abundance fitness is? The variant is GYRKEQERLGIPYDPIQWSTDQVLHWVVWVMKEFSMCDIDLTTLNISGRELCSLNQEDFFQRVPRGEILWSHLELLRKY
OUT: -0.044

IN: Any idea what its abundance fitness is? The variant is GYRKEQERLGIPYDPIQWSTDQVLHWVVWVMKEFSMTDIDLTTLNISGLELCSLNQEDFFQRVPRGEILWSHLELLRKY
OUT: -0.072

IN: Any idea what its abundance fitness is? The variant is GYRKEQERLGIPYDPIQWSTDQVLHWVVWVMKEFRMTDIDLTTLNISGRELCSLNQEDFFQRVPRGEILWSHLELLRKY
OUT: -0.045

IN: Any idea what its abundance fitness is? The variant is GYRKEQERLGIPKDPIQWSTDQVLHWVVWVMKEFSMTDIDLTTLNISGRELCSLNQEDFFQRVPRGEILWSHLELLRKY
OUT: -0.024

IN: Any idea what its abundance fitness is? The variant is GYRKEQERLGIPYCPIQWSTDQVLHWVVWVMKEFSMTDIDLTTLNISGRELCSLNQEDFFQRVPRGEILWSHLELLRKY
OUT: -0.393

IN: Any idea what its abundance fitness is? The variant is GYRKEQERLGIPYDPIQWSTDQVLHWVVWVMKEFSMTDIDLTTLNISGKELCSLNQEDFFQRVPRGEILWSHLELLRKY
OUT: -0.086

IN: Any idea what its abundance fitness is? The variant is GYRKEQERDGIPYDPIQWSTDQVLHWVVWVMKEFSMTDIDLTTLNISGRELCSLNQEDFFQRVPRGEILWSHLELLRKY
OUT: -0.368

IN: Any idea what its abundance fitness is? The variant is GYRKEQERLGIPYDPIQWSTDQVLHWVVWVMKEFSMTDIDLTTLNISGRELCSLNQEDFFVRVPRGEILWSHLELLRKY
OUT: -0.01
